So I've got a bunch of compounds here, and I need their Ratio values.
# experimental protocol: Selectivity ratio, ratio of IC50 for cytotoxicity against human PANC-1 cells in Dulbecco's modified Eagle's medium to PC50 for preferential cytotoxic activity against human PANC-1 cells in nutrient-deprived medium
# Format: functional

Q: // lookup Ratio for O=C1C=C(CC2CCCCC2)C(=O)c2c(O)cccc21
Ans: 42.9

Q: What value of Ratio has been reported for the following compound? CC(C)CC1=CC(=O)c2c(O)cccc2C1=O
Ans: 33.1

Q: What value of measured Ratio is listed for O=C1C(CC2CCCC2)=CC(=O)c2c(O)cccc21 ?
Ans: 21

Q: # get_value(readout='Ratio', item= O=C1C=C(CC2CCCCC2)C(=O)c2ccccc21 )
Ans: 69.9

Q: Item under review: CCC1=CC(=O)c2cccc(O)c2C1=O . Reported Ratio?
Ans: 8.2

Q: Query (compound): CC1=CC(=O)c2c(O)cccc2C1=O ; field requested: Ratio
Ans: 15.4

Q: Dear colleague, I am looking for the recorded Ratio of the following compound: O=C1C=C(Cc2cccc(Cl)c2)C(=O)c2ccccc21
Ans: 16.4

Q: Quick check: Ratio of CCCC1=CC(=O)c2ccccc2C1=O ?
Ans: 11

Q: Bench note: what Ratio did O=C1C(CC2CCCCCC2)=CC(=O)c2c(O)cccc21 show?
Ans: 5.41

Q: Please look up its Ratio: CCC1=CC(=O)c2c(OC)cccc2C1=O
Ans: 4.86

Q: // lookup Ratio for O=C1C(CC2CCCCC2)=CC(=O)c2c(O)cccc21
Ans: 429

Q: Ratio for CCC1=CC(=O)c2ccccc2C1=O ?
Ans: 33.1

Q: Consider the compound shown here: CCC1=CC(=O)c2c(O)cccc2C1=O What is its recorded Ratio?
Ans: 21.6

Q: What measured Ratio goes with Cc1ccc(CC2=CC(=O)c3ccccc3C2=O)cc1 ?
Ans: 16.3

Q: So what's the measured Ratio for this one? CCCC1=CC(=O)c2c(O)cccc2C1=O
Ans: 34.7
